- measured on: Cytochrome P450 2D6 (Homo sapiens)
- assay info: Cytochrome panel assay with activity outcomes
- condition notes: recombinant CYP, pro-luciferin dealkylation, luminescence, p450-cyp2d6; series mostly up to 57.1 µM
- Method: The P450 gene superfamily is involved in the metabolism and clearance of xenobiotics. This assay used various human CYP P450 isozymes to measure the dealkylation of various pro-luciferin substrates to luciferin. The luciferin is then measured by luminescence after the addition of a luciferase detection reagent. […] Inhibitors and some substrates limit the production of luciferin, and decrease measured luminescence. […] 8, Detection, 1 sec, ViewLux luminescent read […]
Out of some 16,000 compounds screened, about 2,600 (16%) were called active. Another 20% or so got no clear call; they are omitted. Calls follow the shape of the dose curve; as a rule, active = well fitted curve in the direction sought with a large enough effect; inconclusive = small, poorly fitted or top-dose-only effect, or effect the other way; inactive = no such curve, though single readings can be large or run the other way. These entries were drawn from the full list.
Outcomes: active, inactive

{"structure smiles string": "Cc1nc2cnc(N3CCN(C)CC3)nc2n(-c2ccccc2)c1=O", "assigned category": "inactive"}
{"structure smiles string": "c1cncc(CNc2ccnc(-c3ccc4c(c3)OCO4)n2)c1", "assigned category": "active"}
{"structure smiles string": "Nc1nonc1-n1nncc1-c1ccccc1", "assigned category": "inactive"}
{"structure smiles string": "COCCn1c(=O)c(-c2ccc(F)c(F)c2)nc2cncnc21", "assigned category": "inactive"}
{"structure smiles string": "COc1ccccc1-c1cncnc1N1CCN(C)CC1", "assigned category": "active"}
